species on record: Rattus norvegicus; experiment: Open TG-GATES - Regimen: Daily Repeat; type: toxicity, organism-based, Sprague-Dawley; design: regimen Daily Repeat, gender Male, age 6 weeks; conditions: in vivo, po, 1000 mg/kg, […], tissue Plasma, route gavage, dose level High, time 14 day
Let's look at some compounds and their measured IP.

- Compound: "CC(S)C(=O)NCC(=O)O (centres undefined)"
  Value Units: "mg/dL"
  IP: 7
- Compound: "O=C(O)c1ccccc1Nc1ccccc1"
  Value Units: "mg/dL"
  IP: 11
- Compound: "CCCCNC(=O)NS(=O)(=O)c1ccc(C)cc1 [TOLBUTAMIDE]"
  Value Units: "mg/dL"
  IP: 6.8
- Compound: "CC(=O)[C@@]1(O)CC[C@H]2[C@@H]3C=C(Cl)C4=CC(=O)CC[C@]4(C)[C@H]3CC[C@@]21C"
  Value Units: "mg/dL"
  IP: 6.8
